# Test system: CCRF-CEM (leukemia)
# protocol-notes: NCI-60 SRB cytotoxicity screen
# Type: cell-based
# run-conditions: Homo sapiens, single dose 10 μM, read-out: growth inhibition (GI%)
parameter-measured: inhibition at 10 µM (%)
Just the number please, in %, no unit attached.

Use the examples below as a reference point.
molecule | unit-text | inhibition at 10 µM
CCc1cccc2cc(-c3cc(-c4cc(OC)c(OC)c(OC)c4)[nH]c(=S)c3C#N)c(Cl)nc12 | % | 57.6
CCc1cccc2cc(-c3cc(-c4cc(OC)c(OC)c(OC)c4)[nH]c(=O)c3C#N)c(Cl)nc12 | % | 80.4
CCc1cccc2cc(C3C=C(c4cc(OC)c(OC)c(OC)c4)NC(=S)N3)c(Cl)nc12 (centres unmarked) | % | 32.9
CCc1cccc2cc(C=CC(=O)c3cc(OC)c(OC)c(OC)c3)c(Cl)nc12 | % | 87.8

Now take the following molecule into account.
[in] Which inhibition at 10 µM is reported for this molecule? `CCc1cccc2cc(C=CC(=O)c3ccc(OC)c(OC)c3)c(Cl)nc12`
[out] 65
